- Measurement target: Fibroblast growth factor 22 (Homo sapiens)
- Assay name: binders of human FGF22 protein, dose response, FGF22 synaptogenesis inhibitor project, biophysical, thermal shift, cherry-pick (AID 687022); further: reference of the scale not given here
- Condition: recombinant FGF22 thermal shift, SYPRO orange melting; series mostly up to 38 µM
The campaign covered roughly 1,000 compounds. About 360 (36%) were called active. A selection follows.
Reported property: Tm shift activity

Task item: What value of Tm shift activity has been reported for the following compound? `Oc1c(CN2CCOCC2)cc(CN2CCOCC2)c(O)c1O`
Reply: inactive

Task item: What value of Tm shift activity has been reported for the following compound? `O=C(N/N=C/c1c[nH]c2ccccc12)c1ccc2c(c1)OCCO2`
Reply: inactive

Task item: What value of Tm shift activity has been reported for the following compound? `CC(=O)N1[C@H](CO)[C@H](c2ccccc2)[C@H]1CN(C(=O)c1cccc(F)c1)C(C)C`
Reply: inactive

Task item: What value of Tm shift activity has been reported for the following compound? `COc1cccc(NC(=O)N[C@@H]2CC[C@@H](CC(=O)Nc3ccccc3)O[C@H]2CO)c1`
Reply: inactive

Task item: What value of Tm shift activity has been reported for the following compound? `O=[N+]([O-])c1ccc(/C=N/Nc2ccc3ccccc3c2)o1`
Reply: inactive

Task item: What value of Tm shift activity has been reported for the following compound? `COc1ccc(/C=N/NC(=O)c2cccc([N+](=O)[O-])c2)cc1OC`
Reply: inactive

Task item: What value of Tm shift activity has been reported for the following compound? `O=C(N[C@H]1CC[C@@H](CCNS(=O)(=O)c2ccc(F)cc2)O[C@H]1CO)C1CCCC1`
Reply: inactive

Task item: What value of Tm shift activity has been reported for the following compound? `CN=C1NN=C(c2cc(C)n(-c3c(C)n(C)n(-c4ccccc4)c3=O)c2C)CS1`
Reply: inactive

---
Task item: What value of Tm shift activity has been reported for the following compound? `C[C@H]1CN([C@@H](C)CO)C(=O)c2cc(NC(=O)CCC(F)(F)F)ccc2O[C@H]1CN(C)CC1CC1`
Reply: inactive

Task item: What value of Tm shift activity has been reported for the following compound? `O=C(COc1ccc(S(=O)(=O)Nc2ccccc2)cc1)NCc1ccncc1`
Reply: inactive

All figures here come from PubChem BioAssay AID687022.
